B1: EEHEE_rd4_0469 (parent)
chain: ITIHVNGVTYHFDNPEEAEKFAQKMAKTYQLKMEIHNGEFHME

Variants of: B1
Assay: folding stability dG (cDNA display proteolysis); higher = more stable
Settings: PBS, room temperature
For each entry below, report its folding stability dG value.
One number for each entry, in kcal/mol.

K20H | 1.15

Items follow; give folding stability dG for each.
1. G7S
2. H41P
3. Y29A
4. L31R

[1.07, 0.588, 1.07, 0.214]

Items follow; give folding stability dG for each.
1. P15W
2. Y10M
3. G38H

1. 1.53
2. 0.573
3. 0.885

Items follow; give folding stability dG for each.
1. Q30F
2. A26M
3. H11L
4. K20L
5. Y10K
6. M25D
7. E43D
8. A26P

[1.14, 1.46, 1.02, 1.23, 0.307, -0.066, 0.889, 0.076]

Items follow; give folding stability dG for each.
1. K27N
2. I1N
3. E16G
4. E39I

1: 0.922; 2: 0.57; 3: 1.02; 4: 1.17
